Assay: Lipophilicity (log D)
Format: physicochemical
Settings: source not stated
measured_parameter: logD

Query block: Would you kindly share the measured logD for O=C(Nc1cccc(Cl)c1)Nc1nc2ccc([N+](=O)[O-])cc2s1 ?
Result block: ~3

---

Test system: D341Med cells
Test: XTT assay (cell metabolism/cytotoxicity)
Format: cell-based, human
Details: Homo sapiens, D341 Med; D341Med, 72 h
measured_parameter: pIC50
Convention used: pIC50 is expressed as -log10 of the molar concentration.

Query block: Would you kindly share the measured pIC50 for O=C(Nc1cccc(Cl)c1)Nc1nc2ccc([N+](=O)[O-])cc2s1 ?
Result block: 5.34

---

System: ONS-76 cells
Assay: XTT assay (cell metabolism/cytotoxicity)
Assay type: cell-based, human
Details: Homo sapiens, ONS-76, 48 h
measured_parameter: pIC50
Convention used: pIC50 is expressed as -log10 of the molar concentration.

Query block: Would you kindly share the measured pIC50 for O=C(Nc1cccc(Cl)c1)Nc1nc2ccc([N+](=O)[O-])cc2s1 ?
Result block: 5.17
